# Experimental target: UniProt P25098
# Sequence (P25098 whole entry): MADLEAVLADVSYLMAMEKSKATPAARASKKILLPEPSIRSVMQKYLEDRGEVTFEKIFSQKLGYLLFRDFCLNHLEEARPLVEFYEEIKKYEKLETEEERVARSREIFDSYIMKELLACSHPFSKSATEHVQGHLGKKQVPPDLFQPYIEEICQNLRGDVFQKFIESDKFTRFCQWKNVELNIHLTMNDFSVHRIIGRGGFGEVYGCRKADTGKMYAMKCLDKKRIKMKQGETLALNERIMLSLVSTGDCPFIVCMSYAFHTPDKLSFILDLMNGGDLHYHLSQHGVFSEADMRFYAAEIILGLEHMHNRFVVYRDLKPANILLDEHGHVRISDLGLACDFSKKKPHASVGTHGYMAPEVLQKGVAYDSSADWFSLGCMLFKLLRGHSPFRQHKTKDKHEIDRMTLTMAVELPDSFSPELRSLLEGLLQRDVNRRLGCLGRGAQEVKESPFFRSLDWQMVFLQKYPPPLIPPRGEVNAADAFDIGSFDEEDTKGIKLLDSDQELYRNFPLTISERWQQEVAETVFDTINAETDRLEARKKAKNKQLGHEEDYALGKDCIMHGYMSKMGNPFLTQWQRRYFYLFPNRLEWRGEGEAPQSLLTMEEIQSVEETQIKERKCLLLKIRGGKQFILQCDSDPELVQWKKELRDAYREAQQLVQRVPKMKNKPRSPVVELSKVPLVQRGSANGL
# Protocol: GRK2 Inhibition Assay (TR-FRET, Example 1)
# Type: biochemical
# Condition description: TR-FRET, 7 μM ATP; read-out: Enzymatic GRK2 Assay: IC50 (nM) (Example 1)
Attribute measured: IC50

Solved entries:
State its IC50 on UniProt P25098: Cc1ncsc1-c1ccc(CNC(=O)[C@@H]2C[C@@H](O)CN2C(=O)[C@@H](NC(=O)CCCCCOCCOCCOCCCCCCOc2cccc(C(C)NC(=O)c3cccc(NCc4nnc(-c5ccncn5)n4C)c3)c2)C(C)(C)C)cc1 (stereo partly shown)
< 100 nM

State its IC50 on UniProt P25098: `Cc1ncsc1-c1ccc(CNC(=O)[C@@H]2C[C@@H](O)CN2C(=O)[C@@H](NC(=O)CCCCCOCCOCCOCCCCCCOc2ccc(F)c(CNC(=O)c3cccc(NCc4nnc(-c5ccncn5)n4C)c3)c2)C(C)(C)C)cc1`
100 to 1000 nM

State its IC50 on UniProt P25098: Cn1c(CNc2cccc(C(=O)NCc3cccc(OCCCCCCn4cc(CCCC(=O)Nc5cccc6c5CN(C5CCC(=O)NC5=O)C6=O)nn4)c3)c2)nnc1-c1ccncn1 (stereo not shown)
< 100 nM

State its IC50 on UniProt P25098: C[C@@H](NC(=O)c1cccc(NCc2nnc(-c3ccncn3)n2C)c1)c1cccc(OCCCCCCOCCOCCOCCCCCC(=O)Nc2cccc3c2CN(C2CCC(=O)NC2=O)C3=O)c1 (stereo partly shown)
< 100 nM

State its IC50 on UniProt P25098: `Cc1ncsc1-c1ccc(CNC(=O)[C@@H]2C[C@H](O)CN2C(=O)[C@@H](NC(=O)CCCCCOCCOCCOCCCCCCOc2cccc(CNC(=O)c3cccc(NCc4nnc(-c5ccncn5)n4C)c3)c2)C(C)(C)C)cc1`
< 100 nM

State its IC50 on UniProt P25098: `Cc1ncsc1-c1ccc(CNC(=O)[C@@H]2C[C@@H](O)CN2C(=O)[C@@H](NC(=O)CCCCCOCCOCCOCCCCCCOc2cccc([C@@H](C)NC(=O)c3cccc(NCc4nnc(-c5ccncn5)n4C)c3)c2)C(C)(C)C)cc1`
< 100 nM

State its IC50 on UniProt P25098: Cc1ncsc1-c1ccc(CNC(=O)[C@@H]2C[C@@H](O)CN2C(=O)C(NC(=O)CCCCc2cn(CCCCCCOc3cccc(CNC(=O)c4cccc(NCc5nnc(-c6ccncn6)n5C)c4)c3)nn2)C(C)(C)C)cc1 (stereo partly shown)
< 100 nM

State its IC50 on UniProt P25098: Cn1c(CNc2cccc(C(=O)NCc3cccc(OCCCCCn4cc(CCCC(=O)Nc5cccc6c5CN(C5CCC(=O)NC5=O)C6=O)nn4)c3)c2)nnc1-c1ccncn1 (stereo not shown)
< 100 nM

State its IC50 on UniProt P25098: `Cc1ncsc1-c1ccc(CNC(=O)[C@@H]2C[C@@H](O)CN2C(=O)[C@@H](NC(=O)CCCCCOCCOCCOCCCCCCOc2ccc(C(F)(F)F)c(CNC(=O)c3cccc(NCc4nnc(-c5ccncn5)n4C)c3)c2)C(C)(C)C)cc1`
< 100 nM

State its IC50 on UniProt P25098: `Cc1ncsc1-c1ccc(CNC(=O)[C@@H]2C[C@@H](O)CN2C(=O)[C@@H](NC(=O)CCCc2cn(CCCCCCOc3cccc(CNC(=O)c4cccc(NCc5nnc(-c6ccncn6)n5C)c4)c3)nn2)C(C)(C)C)cc1`
< 100 nM

***
State its IC50 on UniProt P25098: CC(NC(=O)c1cccc(NCc2nnc(-c3ccncn3)n2C)c1)c1cccc(OCCCCCCOCCOCCOCCCCCC(=O)Nc2cccc3c2CN(C2CCC(=O)NC2=O)C3=O)c1 (stereo not shown)
< 100 nM

State its IC50 on UniProt P25098: C[C@H](NC(=O)c1cccc(NCc2nnc(-c3ccncn3)n2C)c1)c1cc(OCCCCCCOCCOCCOCCCCCC(=O)Nc2cccc3c2CN(C2CCC(=O)NC2=O)C3=O)ccc1F (stereo partly shown)
100 to 1000 nM

State its IC50 on UniProt P25098: Cn1c(CNc2cccc(C(=O)NCc3cc(OCCCCCCOCCOCCOCCCCCC(=O)Nc4cccc5c4CN(C4CCC(=O)NC4=O)C5=O)ccc3F)c2)nnc1-c1ccncn1 (stereo not shown)
< 100 nM

State its IC50 on UniProt P25098: Cn1c(CNc2cccc(C(=O)NCc3cccc(OCCCCCOCCCOCC(=O)Nc4cccc5c4CN(C4CCC(=O)NC4=O)C5=O)c3)c2)nnc1-c1ccncn1 (stereo not shown)
< 100 nM

State its IC50 on UniProt P25098: `Cc1ncsc1-c1ccc(CNC(=O)[C@@H]2C[C@@H](O)CN2C(=O)[C@@H](NC(=O)CCCCc2cn(CCCCCOc3cccc(CNC(=O)c4cccc(NCc5nnc(-c6ccncn6)n5C)c4)c3)nn2)C(C)(C)C)cc1`
< 100 nM

State its IC50 on UniProt P25098: `Cc1ncsc1-c1ccc(CNC(=O)[C@@H]2C[C@@H](O)CN2C(=O)[C@@H](NC(=O)CCCCCOCCOCCOCCCCCCOc2ccc(F)c([C@H](C)NC(=O)c3cccc(NCc4nnc(-c5ccncn5)n4C)c3)c2)C(C)(C)C)cc1`
100 to 1000 nM
